Recorded measurements of pKd, one per entry
Biological target: T1, recombinant human IL1RAP protein, extracellular domain His-tagged (Sino Biological, Cat #10121-H08H) (human, UniProt Q9NPH3 21-367)
T1 construct: extracellular domain; Bought protein; The Octet analyte is printed as huIL1RAP-His (Sino Biological, lot MB08MA1301) without a catalogue number; also called huIL1RAP-His; hIL1RAP; not shown: His tag
T1 sequence (looked up): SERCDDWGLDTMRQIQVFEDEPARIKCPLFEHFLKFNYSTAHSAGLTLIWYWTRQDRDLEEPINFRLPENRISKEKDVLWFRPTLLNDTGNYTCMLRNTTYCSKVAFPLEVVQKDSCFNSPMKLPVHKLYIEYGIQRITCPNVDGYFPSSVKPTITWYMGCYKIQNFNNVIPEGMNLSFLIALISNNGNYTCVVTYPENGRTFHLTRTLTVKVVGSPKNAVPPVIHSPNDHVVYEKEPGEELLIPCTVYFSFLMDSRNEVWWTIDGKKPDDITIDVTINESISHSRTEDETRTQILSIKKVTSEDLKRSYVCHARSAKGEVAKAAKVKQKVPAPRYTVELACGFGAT
Assay: Octet BLI; mAb captured on anti-mouse IgG Fc sensor; huIL1RAP-His analyte
// pKd: -log10(molar conc.)

In the examples that follow, each entry is paired with its recorded pKd.
- binder: "STLX2012 (antibody, V domains shown, Purified from hybridoma of immunized Alivamab mice; intact IgG; captured on anti-mouse IgG Fc sensors in Octet; kappa light chain; also called 74804_12A21B) VH: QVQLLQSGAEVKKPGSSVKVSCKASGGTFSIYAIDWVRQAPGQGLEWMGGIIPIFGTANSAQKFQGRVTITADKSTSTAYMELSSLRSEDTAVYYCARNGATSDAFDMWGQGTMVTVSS VL: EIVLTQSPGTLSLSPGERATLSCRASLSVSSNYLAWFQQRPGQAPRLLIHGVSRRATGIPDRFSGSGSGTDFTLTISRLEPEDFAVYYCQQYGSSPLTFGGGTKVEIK"
  measurement_name: "pKd"
  measured_number: 9.03
- binder: "STLX2018 (antibody, V domains shown, Purified from hybridoma of immunized Alivamab mice; intact IgG; captured on anti-mouse IgG Fc sensors in Octet; kappa light chain; also called 74804_18L05A) VH: QVQLVQSGAEVKKPGASVKVSCKTSGYTFTSCCMHWVRQAPGQGLEWMGIINPSVGSTSYAQKFQGIVTMTRDTSTSTVYMELSSLRSEDTAVYYCAVDSSGSRYYYGMDVWGQGTTVTVSS VL: EIVMTQSPATLSVSPGERATLSCRASQSVRSNLAWYQQRPGQAPRLLIYGTSTRATGIPARFSGSGSGTEFTLTISSLQSEDFAVYYCQQYNYWPYTFGQGTKLEIK"
  measurement_name: "pKd"
  measured_number: 8.79
- binder: "STLX2025 (antibody, V domains shown, Purified from hybridoma of immunized Alivamab mice; intact IgG; captured on anti-mouse IgG Fc sensors in Octet; kappa light chain; also called 74804_25H09A) VH: QVQLVQSGAEVKKPGSSVKVSCKASGDTFSNYAITWVRQAPGQGLEWIVGFSPIFGTANYAQKFQGRVTITADKSTSTAYMELSSLISEDTAVYYCAWGSGNFNWFDPWGQGTLVTVSS VL: AIRMTQSPSSFSASTGDRVTITCRASQGISSYLAWYQQKPGKAPKLLIYAASTLQSGVPSRFSGSGSGTDFTLTISSLQSEDFATYYCQQYYSYPLTFGGGTKVEIK"
  measurement_name: "pKd"
  measured_number: 8.66
- binder: "STLX2045 (antibody, V domains shown, Purified from hybridoma of immunized Alivamab mice; intact IgG; captured on anti-mouse IgG Fc sensors in Octet; kappa light chain; also called 74804_45C18A) VH: EVQLVESGGGLVKPGGSLRLACAATGFTFSNVWMSWVRQGSGKGLEWVGRIKSKADGGTIDYAAPVKGRFTISRDDSKNTLYLQMNSLKTEDTAMYYCTTGELLGFDYWGQGTLVTVSS VL: DIVMTQSPLSLPVTPGEPASISCRSGQSLLHSNGFNCLAWYLQKPGQSPQLLIYLGSNRASGVPDRFSGSGSGTDFTLKISRVEAEDVGVYYCMQTLQTPITFGQGTRLEIK"
  measurement_name: "pKd"
  measured_number: 9.19
- binder: "STLX2027 (antibody, V domains shown, Purified from hybridoma of immunized Alivamab mice; intact IgG; captured on anti-mouse IgG Fc sensors in Octet; lambda light chain; also called 74804_27I24A) VH: EVQLVESGGGLVKPGGSLRLSCAASGFTFITYSMNWVRQAPGKGLEWVSSISSISSYIYYADSVKGRFTISRDNAKNSLYLQMDSLRAEDSAVYYCAREGIVGPTGYFDSWGQGTLVTVSS VL: QSVLTQPPSVSAAPGQKVTISCSGSSSNIGNHYVSWYQQLPGTAPKLLIYDNNKRPSGIPDRFSGSKSGTSATLGITGLQTGDEADYYCGTWDSRLSAYWVFGGGTKLTVL"
  measurement_name: "pKd"
  measured_number: 8.67
- binder: "STLX2005 (antibody, V domains shown, Purified from hybridoma of immunized Alivamab mice; intact IgG; captured on anti-mouse IgG Fc sensors in Octet; kappa light chain; also called 74804_05B24A) VH: EVQLVDSGGGLVKPGGSLRLSCAATGFTFSNVWMSWVRQGSGKGLEWVGRIKSKTDGGTIDYAAPVKGRFTISRDDPKNTLYLQMNSLKTEDTAVYYCTTGELLGFDYWGQGTLVTVSS VL: DIVMTQSPLSLPVTPGEPASISCRSGQSLLHNNGFNCLAWYLQKPGQSPQLLIYLGSNRASGVPDRFSGSGSGTDFTLKISRVEAEDVGVFYCMQTLQTPITFGQGTRLEIK"
  measurement_name: "pKd"
  measured_number: 8.78
- binder: "STLX2043 (antibody, V domains shown, Purified from hybridoma of immunized Alivamab mice; intact IgG; captured on anti-mouse IgG Fc sensors in Octet; kappa light chain; also called 74804_43F04A) VH: QVQLLQSGAEVKKPGSSVKVSCKASGGTFSIYAIDWVRQAPGQGLEWMGGIIPIFGTENSAQNFQGRITITADKSTNTAYMELSSLRSEDTAVYYCARNGATSDAFDIWGQGTMVTVFS VL: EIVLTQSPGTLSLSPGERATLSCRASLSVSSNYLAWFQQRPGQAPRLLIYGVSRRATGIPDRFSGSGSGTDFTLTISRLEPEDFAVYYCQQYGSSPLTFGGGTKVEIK"
  measurement_name: "pKd"
  measured_number: 9.37
- binder: "STLX2029 (antibody, V domains shown, Purified from hybridoma of immunized Alivamab mice; intact IgG; captured on anti-mouse IgG Fc sensors in Octet; kappa light chain; also called 74804_29D13A) VH: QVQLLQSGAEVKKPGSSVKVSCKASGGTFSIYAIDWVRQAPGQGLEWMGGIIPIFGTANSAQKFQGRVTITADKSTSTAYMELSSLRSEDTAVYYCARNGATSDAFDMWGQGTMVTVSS VL: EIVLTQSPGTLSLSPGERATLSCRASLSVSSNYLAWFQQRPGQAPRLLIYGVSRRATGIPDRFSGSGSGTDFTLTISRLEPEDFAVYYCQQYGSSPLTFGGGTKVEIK"
  measurement_name: "pKd"
  measured_number: 8.97

### Prompt // returns reported pKd for input STLX2051 (antibody, V domains shown, Purified from hybridoma of immunized Alivamab mice; intact IgG; captured on anti-mouse IgG Fc sensors in Octet; kappa light chain; also called 74804_51C10A) VH: QVQLLQSGAEVKKPGSSVKVSCKASGGTFNIYAIDWVRQAPGQGLEWMGGIIPIFGTANSAQKFQGRVTITADKSTNTAYMELSSLRSEDTAVYYCARNGATSDAFDIWGQGTMVTVSS VL: EIVLTQSPGTLSLSPGERATLSCRASQSVSSNYLAWFQQRPGQAPRLLIYGVSRRATGIPDRFSGSGSGTDFTLTISRLEPEDFAVYYCQQYGSSPLTFGGGTKVEIK
### Response 9.06

### Prompt // returns reported pKd for input STLX2007 (antibody, V domains shown, Purified from hybridoma of immunized Alivamab mice; intact IgG; captured on anti-mouse IgG Fc sensors in Octet; kappa light chain; also called 74804_07K10A) VH: QVQLLQSGAEVKKPGSSVKVSCRASGGTFSIYAIDWVRQAPGQGLEWMGGIIPISGTENSAQNFQDRITITADKSTNTAYMELSSLRSEDTAVYYCARNGATSDAFDIWGQGTMVTVSS VL: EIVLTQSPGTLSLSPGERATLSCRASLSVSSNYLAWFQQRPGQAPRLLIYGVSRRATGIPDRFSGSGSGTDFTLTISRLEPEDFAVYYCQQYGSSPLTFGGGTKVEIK
### Response 9.22
